System: PDE4
Assay: Inhibition of the PDE4 activity (cytosol from human neutrophils, [3H]cAMP hydrolysis)
Assay type: biochemical
Design: unit not given here
Details: 0.5 μM cAMP, Motapizone 1 μM to suppress PDE3
Property: −log IC50, Inhibition of the PDE4 activity; scope: individual compounds
Readout Type: −log IC50, Inhibition of the PDE4 activity

Compound: COc1cc2c(cc1OC)[C@H]1CCCC[C@H]1N=C2c1ccc(C(C)=NOCc2ccc([N+](=O)[O-])cc2)cc1
Result: 8.41
--
Compound: COc1ccc(CON=C(C)c2ccc(C3=NC4CCCCC4c4cc(OC)c(OC)cc43)cc2)cc1 (stereo not shown)
Result: 8.75
--
Compound: COc1cc2c(cc1OC)[C@H]1CCCC[C@H]1N=C2c1ccc(C(C)=NOCCOc2ccccc2)cc1
Result: 8.73
--
Compound: COc1cc2c(cc1OC)[C@H]1CCCC[C@H]1N=C2c1ccc(C(C)=NOCC(C)C)cc1
Result: 8.01
--
Compound: COc1cc2c(cc1OC)C1CCCCC1N=C2c1ccc(C(C)=NOc2ccccc2)cc1 (stereo not shown)
Result: 8.26
--
Compound: COc1cc2c(cc1OC)[C@H]1CCCC[C@H]1N=C2c1ccc(C(C)=NOCc2ccccc2Cl)cc1
Result: 8.73
--
Compound: COc1cc2c(cc1OC)[C@H]1CCCC[C@H]1N=C2c1cccc(C(=NO)c2ccccc2)c1
Result: 9.27
--
Compound: COc1cc2c(cc1OC)[C@H]1CCCC[C@H]1N=C2c1ccc(C(C)=NOCc2ccc(F)cc2)cc1
Result: 8.36
--
Compound: COc1cc2c(cc1OC)[C@H]1CCCC[C@H]1N=C2c1ccc(C(C)=NOCc2ccccc2)cc1
Result: 8.20
--
Compound: COc1cc2c(cc1OC)[C@H]1CCCC[C@H]1N=C2c1ccc(C(C)=NOCc2ccc(Cl)cc2)cc1
Result: 8.62
--
Compound: CCON=C(C)c1ccc(C2=N[C@@H]3CCCC[C@@H]3c3cc(OC)c(OC)cc32)cc1
Result: 8.08
--
Compound: COc1cc2c(cc1OC)C1CCCCC1N=C2c1ccc(C(C)=NOCc2cccc(Cl)c2)cc1 (stereo not shown)
Result: 8.41
--
Compound: COc1ccccc1CON=C(C)c1ccc(C2=N[C@@H]3CCCC[C@@H]3c3cc(OC)c(OC)cc32)cc1
Result: 8.33
--
Compound: COc1ccccc1NC(=O)CON=C(C)c1ccc(C2=N[C@@H]3CCCC[C@@H]3c3cc(OC)c(OC)cc32)cc1
Result: 8.87
--
Compound: COc1cc2c(cc1OC)C1CCCCC1N=C2c1cccc(C(C)=NO)c1 (stereo not shown)
Result: 8.33
--
Compound: COc1cc2c(cc1OC)C1CCCCC1N=C2c1ccc(C(C)=NOCC(=O)NCc2ccc(Cl)cc2)cc1 (stereo not shown)
Result: 8.48

====

Test system: PDE4
Experiment: Inhibition of the PDE4 activity (cytosol from human neutrophils, [3H]cAMP hydrolysis)
Format: biochemical
Parameters: unit not given here
Details: 0.5 μM cAMP, Motapizone 1 μM to suppress PDE3
Readout Type: −log IC50, Inhibition of the PDE4 activity

Molecule: COc1cc2c(cc1OC)[C@H]1CCCC[C@H]1N=C2c1ccc(C(C)=NOCC(=O)N2CCOCC2)cc1
Measured Target: PDE4
Result: 8.25
//
Molecule: COc1cc2c(cc1OC)[C@H]1CCCC[C@H]1N=C2c1ccc(C(C)=NOCc2cccc(F)c2)cc1
Measured Target: PDE4
Result: 8.47
//
Molecule: COc1cc2c(cc1OC)C1CCCCC1N=C2c1ccc(C(=NO)c2ccccc2)cc1 (stereo not drawn)
Measured Target: PDE4
Result: 9.04
//
Molecule: COc1cc2c(cc1OC)[C@H]1CCCC[C@H]1N=C2c1ccc(C(C)=NOCc2cccc(C(F)(F)F)c2)cc1
Measured Target: PDE4
Result: 8.43
//
Molecule: COc1cc2c(cc1OC)[C@H]1CCCC[C@H]1N=C2c1ccc(C(C)=NO)cc1
Measured Target: PDE4
Result: 9.43
//
Molecule: COc1cc2c(cc1OC)[C@H]1CCCC[C@H]1N=C2c1ccc(C(C)=NOCCOc2cccc(C(F)(F)F)c2)cc1
Measured Target: PDE4
Result: 8.00

Origin of the recorded values: patent US20060189641A1
